# System: 299254-011-R-J1-PDC complex spheroids viability
# testSummary: Anticancer human tumor 299254-011-R-J1-PDC patient-derived melanoma cell line growth inhibition [GQUAD]
# conditionInfo: second compound 3.16 µM; first compound 10 µM; active compounds read low
Just a reminder that ties go to Not met: only viability, T/C strictly below 70% counts as Met.

IN: Lab note: viability, T/C threshold 70%. Does this molecule come in strictly under it? CC(C)(O)C1CCC(Nc2ccc3ncc(-c4cccc(C(F)(F)F)c4)n3n2)CC1 (configuration not stated) + CN(C)c1ccc(Nc2c3ccc(NC(=O)CCN4CCCC4)cc3nc3cc(NC(=O)CCN4CCCC4)ccc23)cc1
OUT: Not met

IN: Lab note: viability, T/C threshold 70%. Does this molecule come in strictly under it? CCCS(=O)(=O)Nc1ccc(F)c(C(=O)c2c[nH]c3ncc(-c4ccc(Cl)cc4)cc23)c1F + Cc1[nH]c2ccc(F)cc2c1-c1nc2c3cccnc3c3ncccc3c2[nH]1
OUT: Met

IN: Lab note: viability, T/C threshold 70%. Does this molecule come in strictly under it? C#Cc1c(F)ccc2cc(O)cc(-c3ncc4c(N5CC6CCC(C5)N6)nc(OCC56CCCN5CC(F)C6)nc4c3F)c12 (configuration not stated) + Cc1cnc(CNC(=O)c2c(=O)c3ccc(N4CCCN(C)CC4)nc3n3c2sc2ccccc23)cn1
OUT: Not met

IN: Lab note: viability, T/C threshold 70%. Does this molecule come in strictly under it? COc1cccc2c1C(=O)c1c(O)c3c(c(O)c1C2=O)CC(O)(C(=O)CO)CC3OC1CC(N)C(O)C(C)O1 (configuration not stated) + Cc1[nH]c2ccc(F)cc2c1-c1nc2c3cccnc3c3ncccc3c2[nH]1
OUT: Met

IN: Lab note: viability, T/C threshold 70%. Does this molecule come in strictly under it? COc1cc(C2c3cc4c(cc3C(OC3OC5COC(C)OC5C(O)C3O)C3COC(=O)C23)OCO4)cc(OC)c1O (configuration not stated) + Cc1[nH]c2ccc(F)cc2c1-c1nc2c3cccnc3c3ncccc3c2[nH]1
OUT: Not met

IN: Lab note: viability, T/C threshold 70%. Does this molecule come in strictly under it? Nc1ccn(C2OC(CO)C(O)C2(F)F)c(=O)n1 (configuration not stated) + Cc1cnc(CNC(=O)c2c(=O)c3ccc(N4CCCN(C)CC4)nc3n3c2sc2ccccc23)cn1
OUT: Met

IN: Lab note: viability, T/C threshold 70%. Does this molecule come in strictly under it? COc1ncnc(C2CC2)c1-c1ncc2cnn(Cc3ccc(-c4nc(C(F)(F)F)cn4C(C)C)cc3)c2n1 + Cc1cnc(CNC(=O)c2c(=O)c3ccc(N4CCCN(C)CC4)nc3n3c2sc2ccccc23)cn1
OUT: Not met

IN: Lab note: viability, T/C threshold 70%. Does this molecule come in strictly under it? CC(C)(O)C1CCC(Nc2ccc3ncc(-c4cccc(C(F)(F)F)c4)n3n2)CC1 (configuration not stated) + Cc1cnc(CNC(=O)c2c(=O)c3ccc(N4CCCN(C)CC4)nc3n3c2sc2ccccc23)cn1
OUT: Met

IN: Lab note: viability, T/C threshold 70%. Does this molecule come in strictly under it? CC1COCCN1c1cc(C2(O)CC3CCC(C2)O3)c2cnn(-c3ccn[nH]3)c2n1 (configuration not stated) + Cc1cnc(CNC(=O)c2c(=O)c3ccc(N4CCCN(C)CC4)nc3n3c2sc2ccccc23)cn1
OUT: Met

IN: Lab note: viability, T/C threshold 70%. Does this molecule come in strictly under it? O=c1[nH]cc(F)c(=O)[nH]1 + Cc1cnc(CNC(=O)c2c(=O)c3ccc(N4CCCN(C)CC4)nc3n3c2sc2ccccc23)cn1
OUT: Not met

IN: Lab note: viability, T/C threshold 70%. Does this molecule come in strictly under it? COc1cc(C2c3cc4c(cc3C(OC3OC5COC(C)OC5C(O)C3O)C3COC(=O)C23)OCO4)cc(OC)c1O (configuration not stated) + CN(C)c1ccc(Nc2c3ccc(NC(=O)CCN4CCCC4)cc3nc3cc(NC(=O)CCN4CCCC4)ccc23)cc1
OUT: Not met

IN: Lab note: viability, T/C threshold 70%. Does this molecule come in strictly under it? C=CCn1c(=O)c2cnc(Nc3ccc(N4CCN(C)CC4)cc3)nc2n1-c1cccc(C(C)(C)O)n1 + Cc1cnc(CNC(=O)c2c(=O)c3ccc(N4CCCN(C)CC4)nc3n3c2sc2ccccc23)cn1
OUT: Met

IN: Lab note: viability, T/C threshold 70%. Does this molecule come in strictly under it? CC(C)n1c(=O)n(C)c2cnc3cc(F)c(-c4ccc(OCCCN5CCCCC5)nc4)cc3c21 + Cc1[nH]c2ccc(F)cc2c1-c1nc2c3cccnc3c3ncccc3c2[nH]1
OUT: Met

* * *

# Test system: 299254-011-R-J1-PDC complex spheroids viability
# testSummary: Anticancer human tumor 299254-011-R-J1-PDC cell line growth inhibition [GQUAD];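 further: spheroids exposed to the agents for seven days before readout; percent viability relative to DMSO vehicle control wells = 100%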
# conditionInfo: second compound 0.316 µM; first compound 1 µM; active compounds read low
Exercise: for every item that follows, state its recorded viability, T/C.
Form entry: value (%) — number only.

get_value(item= C=CC(=O)N1CCN(c2nc(=O)n(-c3c(C)ccnc3C(C)C)c3nc(-c4c(O)cccc4F)c(F)cc23)C(C)C1 (stereo unspecified) + CN(C)c1ccc(Nc2c3ccc(NC(=O)CCN4CCCC4)cc3nc3cc(NC(=O)CCN4CCCC4)ccc23)cc1 , readout=viability, T/C) returns 68.2

get_value(item= CC1COCCN1c1cc(-c2ccnn2C)c2ccnc(-c3ccn[nH]3)c2n1 (stereo unspecified) + CN(C)c1ccc(Nc2c3ccc(NC(=O)CCN4CCCC4)cc3nc3cc(NC(=O)CCN4CCCC4)ccc23)cc1 , readout=viability, T/C) returns 19

get_value(item= CC(C)(O)C1CCC(Nc2ccc3ncc(-c4cccc(C(F)(F)F)c4)n3n2)CC1 (stereo unspecified) + CN(C)c1ccc(Nc2c3ccc(NC(=O)CCN4CCCC4)cc3nc3cc(NC(=O)CCN4CCCC4)ccc23)cc1 , readout=viability, T/C) returns 89.5

get_value(item= CC1COCCN1c1cc(C2(O)CC3CCC(C2)O3)c2cnn(-c3ccn[nH]3)c2n1 (stereo unspecified) + Cc1[nH]c2ccc(F)cc2c1-c1nc2c3cccnc3c3ncccc3c2[nH]1 , readout=viability, T/C) returns 19.6

get_value(item= COc1ncnc(C2CC2)c1-c1ncc2cnn(Cc3ccc(-c4nc(C(F)(F)F)cn4C(C)C)cc3)c2n1 + Cc1[nH]c2ccc(F)cc2c1-c1nc2c3cccnc3c3ncccc3c2[nH]1 , readout=viability, T/C) returns 92

get_value(item= CC(C)n1c(=O)n(C)c2cnc3cc(F)c(-c4ccc(OCCCN5CCCCC5)nc4)cc3c21 + Cc1cnc(CNC(=O)c2c(=O)c3ccc(N4CCCN(C)CC4)nc3n3c2sc2ccccc23)cn1 , readout=viability, T/C) returns 55.7

get_value(item= CC(C)(O)C1CCC(Nc2ccc3ncc(-c4cccc(C(F)(F)F)c4)n3n2)CC1 (stereo unspecified) + Cc1[nH]c2ccc(F)cc2c1-c1nc2c3cccnc3c3ncccc3c2[nH]1 , readout=viability, T/C) returns 109

get_value(item= CC1COCCN1c1cc(-c2ccnn2C)c2ccnc(-c3ccn[nH]3)c2n1 (stereo unspecified) + Cc1[nH]c2ccc(F)cc2c1-c1nc2c3cccnc3c3ncccc3c2[nH]1 , readout=viability, T/C) returns 22.4

get_value(item= COc1cccc2c1C(=O)c1c(O)c3c(c(O)c1C2=O)CC(O)(C(=O)CO)CC3OC1CC(N)C(O)C(C)O1 (stereo unspecified) + Cc1[nH]c2ccc(F)cc2c1-c1nc2c3cccnc3c3ncccc3c2[nH]1 , readout=viability, T/C) returns 94.7

get_value(item= O=c1[nH]cc(F)c(=O)[nH]1 + CN(C)c1ccc(Nc2c3ccc(NC(=O)CCN4CCCC4)cc3nc3cc(NC(=O)CCN4CCCC4)ccc23)cc1 , readout=viability, T/C) returns 93.3

get_value(item= O=C(c1cc(Cc2n[nH]c(=O)c3ccccc23)ccc1F)N1CCN(C(=O)C2CC2)CC1 + Cc1[nH]c2ccc(F)cc2c1-c1nc2c3cccnc3c3ncccc3c2[nH]1 , readout=viability, T/C) returns 95.1

* * *

# Test system: 299254-011-R-J1-PDC complex spheroids viability
# testSummary: Anticancer human tumor 299254-011-R-J1-PDC cell line growth inhibition [GQUAD];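 further: spheroids exposed to the agents for seven days before readout; percent viability relative to DMSO vehicle control wells = 100%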
# conditionInfo: second compound 3.16 µM; first compound 1 µM; active compounds read low
Exercise: for every item that follows, state its recorded viability, T/C.
Form entry: value (%) — number only.

get_value(item= COc1cccc2c1C(=O)c1c(O)c3c(c(O)c1C2=O)CC(O)(C(=O)CO)CC3OC1CC(N)C(O)C(C)O1 (stereo not drawn) + Cc1[nH]c2ccc(F)cc2c1-c1nc2c3cccnc3c3ncccc3c2[nH]1 , readout=viability, T/C) returns 70.3

get_value(item= C#Cc1c(F)ccc2cc(O)cc(-c3ncc4c(N5CC6CCC(C5)N6)nc(OCC56CCCN5CC(F)C6)nc4c3F)c12 (stereo not drawn) + Cc1cnc(CNC(=O)c2c(=O)c3ccc(N4CCCN(C)CC4)nc3n3c2sc2ccccc23)cn1 , readout=viability, T/C) returns 85.8

get_value(item= COc1cc(C2c3cc4c(cc3C(OC3OC5COC(C)OC5C(O)C3O)C3COC(=O)C23)OCO4)cc(OC)c1O (stereo not drawn) + Cc1[nH]c2ccc(F)cc2c1-c1nc2c3cccnc3c3ncccc3c2[nH]1 , readout=viability, T/C) returns 89.4
